So I've got a bunch of binders here, and I need their TROP2+ 293T EC50 values.
- MEASUREMENT_TARGET: T1, TROP2 (UniProt P09758 27-323, limits assumed)
- T1 sequence (looked up): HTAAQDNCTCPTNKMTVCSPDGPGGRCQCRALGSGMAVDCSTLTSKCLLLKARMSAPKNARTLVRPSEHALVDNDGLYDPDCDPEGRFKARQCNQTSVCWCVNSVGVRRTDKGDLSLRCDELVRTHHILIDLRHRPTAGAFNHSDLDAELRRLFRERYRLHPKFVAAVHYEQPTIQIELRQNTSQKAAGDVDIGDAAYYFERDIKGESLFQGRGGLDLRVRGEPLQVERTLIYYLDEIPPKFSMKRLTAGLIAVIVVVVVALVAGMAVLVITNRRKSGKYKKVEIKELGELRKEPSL
- TEST_SUMMARY: cell-based or functional assay

Input: Fill in: TROP2+ 293T EC50 of anti-TROP2 mAb5 (Sacituzumab, heavy chain S375C, light chain V110C) conjugated with Compound 3.3 (antibody, human IgG1, V domains shown, Compound 3.3 on engineered C110 (EU numbering); Compound 3.3 on engineered C375 (EU numbering); DAR 3.7 for the whole antibody) VH: QVQLQQSGSELKKPGASVKVSCKASGYTFTNYGMNWVKQAPGQGLKWMGWINTYTGEPTYTDDFKGRFAFSLDTSVSTAYLQISSLKADDTAVYFCARGGFGSSYWYFDVWGQGSLVTVSS VL: DIQLTQSPSSLSASVGDRVSITCKASQDVSIAVAWYQQKPGKAPKLLIYSASYRYTGVPDRFSGSGSGTDFTLTISSLQPEDFAVYYCQQHYITPLTFGAGTKVEIKR is ___
Output: 8 nM

Input: isotype mAb Libivirumab (anti HBsAg mAb) conjugated with Compound 3.3 (antibody, human IgG1, kappa, V domains shown) VH: QVQLVESGGGVVRPGRSLRLSCAASGFAFSDYSINWVRQAPGKGLEWVAIISYDGRITYYRDSVKGRFTISRDDSKNTLYLQMNSLRTEDTAVYYCARQYYDFWSGSSVGRNYDGMDVWGLGTTVTVSS VL: DIVMTQSPLSLSVTPGEPASISCRSSQSLLHRSGNNYLDWYLQKPGHSPQLLIYVGSNRASGVPDRFSGSGSGTEYTLKISRVEAEDVGVYYCMQALQTPRTFGQGTKLEIKR ?
Output: > 1000 nM

Input: anti-TROP2 mAb5 (Sacituzumab, heavy chain S375C, light chain V110C) conjugated with Compound 3.13 (antibody, human IgG1, V domains shown, Compound 3.13 on engineered C110 (EU numbering); Compound 3.13 on engineered C375 (EU numbering); DAR 3.3 for the whole antibody) VH: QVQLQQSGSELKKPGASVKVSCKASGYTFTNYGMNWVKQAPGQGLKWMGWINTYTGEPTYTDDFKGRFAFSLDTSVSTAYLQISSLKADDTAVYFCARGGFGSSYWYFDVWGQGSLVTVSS VL: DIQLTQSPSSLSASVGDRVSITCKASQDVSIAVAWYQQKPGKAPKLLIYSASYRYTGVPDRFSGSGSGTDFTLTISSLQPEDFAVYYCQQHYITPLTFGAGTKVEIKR ?
Output: 3 nM

Input: anti-TROP2 mAb5 (Sacituzumab, heavy chain S375C, light chain V110C) conjugated with Compound 3.17 (antibody, human IgG1, V domains shown, Compound 3.17 on engineered C110 (EU numbering); Compound 3.17 on engineered C375 (EU numbering); DAR 3.6 for the whole antibody) VH: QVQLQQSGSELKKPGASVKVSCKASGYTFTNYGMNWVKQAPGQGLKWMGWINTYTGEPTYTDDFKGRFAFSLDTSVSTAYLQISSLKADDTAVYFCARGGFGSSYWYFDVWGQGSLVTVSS VL: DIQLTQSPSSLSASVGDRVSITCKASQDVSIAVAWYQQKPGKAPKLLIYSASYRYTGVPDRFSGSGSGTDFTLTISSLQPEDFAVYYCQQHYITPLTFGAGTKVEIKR ?
Output: 3 nM
